Would you mind telling me the reported normalized growth of each entry?
# assay_method_text: chemical genetic growth profiling, strain panel (AID 1159580);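 note: tested at 20 µM; growth read once vehicle control cultures reached saturation at 30 °C; 1 = growth at the plate median or of vehicle wells; lower values mean less growth of the strain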
# experimental_conditions: S. cerevisiae deletion strains, growth OD, locus YPL051W, strain arl3, stronger effect = lower value
The campaign covered roughly 5,500 compounds. About 2,000 (36%) were called active. Another 18% or so got no clear call; they are omitted. The list shows a part of the results.
Reply with just the number.

Just so you know, measured normalized growth for CCCc1nc2c(C)cc(-c3nc4ccccc4n3C)cc2n1Cc1ccc(-c2ccccc2C(=O)O)cc1 came out at 1.01

Just so you know, measured normalized growth for NC(N)=NC(N)=Nc1ccccc1 came out at 0.996

Just so you know, measured normalized growth for Cc1cc(C(C)(C)C)cc(C)c1CC1=NCCN1 came out at 1.01

Just so you know, measured normalized growth for COc1cc(O)cc(OC)c1OC came out at 1.01

Just so you know, measured normalized growth for COc1cnc(NS(=O)(=O)c2ccc(N)cc2)nc1 came out at 0.999

Just so you know, measured normalized growth for COc1cc(NS(=O)(=O)c2ccc(N)cc2)ncn1 came out at 0.981

Just so you know, measured normalized growth for C=C(C)[C@@H]1CC[C@]2(CO)CC[C@]3(C)[C@H](CCC4[C@@]5(C)CC[C@H](O)C(C)(C)C5CC[C@]43C)C12 (some centres not stated) came out at 1.02

Just so you know, measured normalized growth for CCCCCCCCCCCCCCCCCCOCC(O)CO (configuration not stated) came out at 1.01

Just so you know, measured normalized growth for c1ccc([C@H]2CN3CCSC3=N2)cc1 came out at 1.01

Just so you know, measured normalized growth for Cc1ccc(N(CC2=NCCN2)c2cccc(O)c2)cc1 came out at 1

Just so you know, measured normalized growth for CCCCc1nc(Cl)c(CO)n1Cc1ccc(-c2ccccc2-c2nn[nH]n2)cc1 came out at 0.99

Just so you know, measured normalized growth for O=C(CCBr)N1CCN(C(=O)CCBr)CC1 came out at 1.02

Where these numbers come from: PubChem BioAssay AID1159580
